The origin of these recorded values is PubChem BioAssay (NCI).

test system: CAKI-1 renal; test: NCI-60 one-dose screen, 48 h (100 = growth as untreated, 0 = no growth, -100 = all killed); settings: 10 µM unless noted
Compounds without any hit were thinned out: in the full panel of roughly 83,000, 20% have a hit.
Label TRUE when growth is at or above 50%; anything below gets FALSE.

{"molecule": "CC1(C)OC2[C@@H](CNC(=O)NC(=O)NC(=O)CI)O[C@@H](n3cnc4c(NC(=O)Nc5ccccc5)ncnc43)[C@H]2O1 (some centres undefined)", "qualitative label": "FALSE"}
{"molecule": "C#C[C@]1(O)CC[C@H]2[C@@H]3CC=C4c5nc(N)sc5CC[C@]4(C)[C@H]3CC[C@@]21C", "qualitative label": "TRUE"}
{"molecule": "O=C1Nc2ccccc2/C1=C/C(=O)c1ccc(N2CCCC2)cc1", "qualitative label": "FALSE"}
{"molecule": "N#Cc1ccc(-c2ccc(COc3ccc(CC4SC(=O)NC4=O)cc3)cc2)cc1 (centres undefined)", "qualitative label": "FALSE"}
{"molecule": "O=C(Nc1cc(F)cc2cccnc12)c1cnc(N2CCNCC2)cn1", "qualitative label": "TRUE"}
{"molecule": "CCOC(=O)c1cc(C(=O)c2ccc(OC)c(OC)c2)n2ccc(-c3ccccn3)cc12", "qualitative label": "TRUE"}
{"molecule": "CCN(CC)CCCCCCNc1cccc2cc(Br)cnc12", "qualitative label": "TRUE"}
{"molecule": "CC(C)C1=NOC(=O)C1=Cc1cn(-c2ccccc2)nc1-c1ccccc1", "qualitative label": "TRUE"}
{"molecule": "C[C@@H](NC(=O)[C@@H](CC(=O)N1CCC(N2CCCCC2)CC1)N1C(=O)[C@@H](N2C(=O)OC[C@@H]2c2ccccc2)[C@H]1/C=C/c1cccc(Cl)c1)c1ccccc1", "qualitative label": "TRUE"}
